target: HLA-DR DRB1*1302 (human); assay: competition with 125I-labelled reference peptide on purified HLA-DR
pIC50: −log10 of the molar value.
# cutoff 7 applies to pIC50; >= gives T, < gives F

Qu. Entry NLEYQIGYICSGVFG (modifications not checked) [Flu.NA.289 peptide …] : is its pIC50 no less than 7?
Ans. T

Qu. Entry RTFFLTQGALLNDKHS (modifications not checked) [Flu.NA.110 peptide …] : is its pIC50 no less than 7?
Ans. F

Qu. Entry SLMLQIGNMISIWVSHS (modifications not checked) [Flu.NA.21 peptide …] : is its pIC50 no less than 7?
Ans. T

Qu. Entry NGTVKDRSPHRTLMS (modifications not checked) [Flu.NA.126 peptide …] : is its pIC50 no less than 7?
Ans. F

Qu. Entry WAVYSKDNSIRIGSK (modifications not checked) [Flu.NA.77 peptide …] : is its pIC50 no less than 7?
Ans. T

Qu. Entry IGNMISIWVSHSIHTG (modifications not checked) [Flu.NA.26 peptide …] : is its pIC50 no less than 7?
Ans. F

Qu. Entry YIQMCTELKLSDYEG (modifications not checked) [Flu.NP.43 peptide …] : is its pIC50 no less than 7?
Ans. F

Qu. Entry VAVLKYNGIITDTIKSW (modifications not checked) [Flu.NA.183 peptide …] : is its pIC50 no less than 7?
Ans. F

Qu. Entry TQGALLNDKHSNGTVKD (modifications not checked) [Flu.NA.115 peptide …] : is its pIC50 no less than 7?
Ans. F
